Ref: PubChem BioAssay (EPA / NIEHS)

- Tested on: Thyroperoxidase (TPO), gene 54314
- assay explanation: CCTE_Simmons_AUR_rTPO: CCTE's Amplex UltraRed Assay for Thyroperoxidase (TPO) Inhibition, Simmons Lab (AID 2283662)
Calls of active or inactive are those of the source. How the source made its calls: active means hit-call score of the fitted dose curve at least 0.9, where 1 is the maximum; inconclusive means response in the unintended direction; inactive means score below 0.9.
Outcome codes: active, inactive

1. O=c1ssc(Cl)c1Cl; active
2. CC(C)(C)c1ccc(O)cc1; active
3. CCCCN(CC)C(=O)SCCC; active
4. CCOP(=S)(OCC)SCSCC; active
5. CCC1(c2ccccc2)C(=O)N=C(O)NC1=O (stereo unspecified); inactive
6. Nc1ccc2ccccc2c1; active
7. CCC(C)(C)c1ccc(O)cc1; active
8. CCOP(=S)(Oc1ccc([N+](=O)[O-])cc1)c1ccccc1 (stereo unspecified); active
9. CCCCc1ccc(O)cc1; active
10. O=S1(=O)OCC2C(CO1)C1(Cl)C(Cl)=C(Cl)C2(Cl)C1(Cl)Cl (stereo unspecified); active
11. c1ccc2c(c1)Nc1ccccc1S2; active

---

- assay explanation: TOX21_p53_BLA_p5_viability: Viability Assessment in the Tox21 HCT-116 p53 Agonism Beta-lactamase Assay, Phase 5 (AID 2283600)
Records with an inconclusive call do not appear. The source made the active and inactive calls. Rule for the calls: active = hit-call score of the fitted dose curve at least 0.9, where 1 is the maximum; inconclusive = response in the unintended direction; inactive = score below 0.9.
Outcome codes: yes (1) = active, no (0) = inactive

1. CCOS(=O)(=O)OCC; no (0)
2. ClC(Cl)(Cl)c1ccccc1; no (0)
3. Cc1c([N+](=O)[O-])cc2c(c1[N+](=O)[O-])C(C)(C)CC2(C)C; no (0)
4. c1ccc2c(c1)sc1ccccc12; no (0)
5. O=c1ssc(Cl)c1Cl; no (0)
6. C=C(C)C(=O)OCC1CO1 (stereo not drawn); no (0)
7. CCCN(CCC)c1c([N+](=O)[O-])cc(C(C)C)cc1[N+](=O)[O-]; no (0)
8. Nc1ccc(Cl)cc1; no (0)
9. CCCCN(CCCC)N=O; no (0)
10. Nc1ccc2ccccc2c1; no (0)
11. OCC1CO1 (stereo not drawn); no (0)
12. CCOc1ccc(C(C)(C)COCc2cccc(Oc3ccccc3)c2)cc1; no (0)
13. CCCCOCCOP(=O)(OCCOCCCC)OCCOCCCC; no (0)
14. c1nc[nH]n1; no (0)
15. COP(=O)(O)OC; yes (1)
16. c1ccc2c(c1)Nc1ccccc1S2; no (0)
17. O=[N+]([O-])c1ccccc1; no (0)
18. CC(=O)CCc1ccc2c(c1)OCO2; no (0)
19. CCCCOCC1CO1 (stereo not drawn); no (0)
20. O=c1[nH]c2ccccc2c(=O)o1; no (0)
21. CC(C)(C)OOC(C)(C)C; no (0)
22. CNC(=O)Oc1ccc(N(C)C)c(C)c1; no (0)
23. O=C(CBr)OCc1ccccc1; no (0)

---

- Read-out: Vascular cell adhesion molecule 1 (VCAM1), VCAM1 (gene 7412)
- assay explanation: BSK_MyoF_VCAM1: BioMAP Diversity Plus: MyoF Assay for Vascular cell adhesion molecule 1 (VCAM1) Biomarker Activity (AID 2284231)
- measurement setup: primary human lung fibroblasts
Activity calls are given as the source filed them. The calls were made as follows: active = hit-call score of the fitted dose curve at least 0.9, where 1 is the maximum; inactive = score below 0.9.
reported metric: AC50

1) O=S(=O)(F)C(F)(F)C(F)(F)C(F)(F)C(F)(F)C(F)(F)C(F)(F)C(F)(F)C(F)(F)F; inactive
2) O=C(O)C=CC(F)(C(F)(F)F)C(F)(F)F; inactive
3) COC(=O)C(F)(F)C(F)(F)OC(F)(C(F)(F)F)C(F)(F)OC(F)=C(F)F (stereo not drawn); inactive
4) O=C(O)C(F)(OC(F)(F)C(F)(F)C(F)(F)F)C(F)(F)F (stereo not drawn); inactive
5) Cc1ccc2c(c1N)C(=O)c1ccccc1C2=O; inactive
6) COP(N)(=S)OC; inactive
7) CCOP(=S)(OCC)SCn1nnc2ccccc2c1=O; inactive
8) CCOP(=S)(NC(C)C)Oc1ccccc1C(=O)OC(C)C (stereo not drawn); inactive
9) CCCCC(CC)COP(=O)(Oc1ccccc1)Oc1ccccc1 (stereo not drawn); 11.1 µM (active)
10) CCCCOCCOP(=O)(OCCOCCCC)OCCOCCCC; inactive
11) CC(Cl)CN(C)C (stereo not drawn); 20 µM (active)
12) CC(C)Nc1ccc(Nc2ccccc2)cc1; 20 µM (active)
13) COP(=O)(O)OC; inactive
